Just for reference, patent US6770597B2 is where these values come from.

# Tested on: common ragweed (Ambrosia artemisiifolia L., AMBEL)
# experimental.details: Greenhouse herbicide screen, post-emerge application, phytotoxicity rating
# Type: in vivo
# test.context: POST emergent, 63 g ai/ha, 14 days after application, scale 0-100

compound: CN(NC(=O)c1cc(-n2c(=O)cc(C(F)(F)F)n(C)c2=O)c(F)cc1Cl)c1ccccc1
system.name: common ragweed (Ambrosia artemisiifolia L., AMBEL)
phytotoxicity rating AMBEL: 99

compound: CN(N=C(C(C)(C)C)C(C)(C)C)C(=O)c1cc(-n2c(=O)cc(C(F)(F)F)n(C)c2=O)c(F)cc1Cl
system.name: common ragweed (Ambrosia artemisiifolia L., AMBEL)
phytotoxicity rating AMBEL: 70

compound: Cn1c(C(F)(F)F)cc(=O)n(-c2cc(C(=O)NN3CCCC3)c(Cl)cc2F)c1=O
system.name: common ragweed (Ambrosia artemisiifolia L., AMBEL)
phytotoxicity rating AMBEL: 99

compound: CC1CCCC(C)N1NC(=O)c1cc(-n2c(=O)cc(C(F)(F)F)n(C)c2=S)c(F)cc1Cl (stereo not shown)
system.name: common ragweed (Ambrosia artemisiifolia L., AMBEL)
phytotoxicity rating AMBEL: 80

compound: CC(=O)OC(=NN=C(C)C(C)(C)C)c1cc(-n2c(=O)cc(C(F)(F)F)n(C)c2=O)c(F)cc1Cl
system.name: common ragweed (Ambrosia artemisiifolia L., AMBEL)
phytotoxicity rating AMBEL: 90

compound: CC(=NN=C(OC(=O)C(Cl)Cl)c1cc(-n2c(=O)cc(C(F)(F)F)n(C)c2=O)c(F)cc1Cl)C(C)(C)C
system.name: common ragweed (Ambrosia artemisiifolia L., AMBEL)
phytotoxicity rating AMBEL: 95

compound: CC(=NNC(=O)c1cc(-n2c(=O)cc(C(F)(F)F)n(C)c2=O)c(F)cc1Cl)C(C)(C)C
system.name: common ragweed (Ambrosia artemisiifolia L., AMBEL)
phytotoxicity rating AMBEL: 60
